- method: In situ rat brain perfusion (brain uptake Kin, extraction E, BBB PS)
- measurement_context: cerebral cortex; flow 0.1–[…]; S = physiological saline, AB = artificial blood
Entries annotated with measured PcS
measurement_type: PcS

                                    compound  reported_measurement
 0  O=C(CO)[C@@H](O)[C@H](O)[C@H](O)CO [Fructose]       5.74e-06 mL/s/g
 1                     CNC(N)=O [Methylurea]        0.00019 mL/s/g
 2  CC(O)CO (stereo not drawn) [1,2-Propanediol]         0.0022 mL/s/g
 3                             CO [Methanol]          0.028 mL/s/g
 4  O=C[C@@H](O)[C@H](O)[C@@H](O)[C@@H](O)CO [L-Glucose]       1.25e-05 mL/s/g
 5                   OCCCO [1,3 Propanediol]         0.0052 mL/s/g
 6  CCCCNS(=O)(=O)c1ccccc1 [N-butyl-benzene sulfonamide]           0.38 mL/s/g
 7                  NC(=O)CI [Iodoacetamide]         0.0092 mL/s/g
 8  CC(C)NC(C)Cc1ccc(I)cc1 (stereo not drawn) [Iofetamine, isopropyl-iodoamphetamine]           0.29 mL/s/g
 9  CC(=O)N[C@@H](CS)C(=O)O [N-acetyl-cysteine]       1.82e-06 mL/s/g
10  O=C1Nc2ccc(Cl)cc2C(c2ccccc2Cl)=NC1O (stereo not drawn) [Lorazepam]           0.30 mL/s/g
11        Nc1ccccc1C(=O)O [Anthranilic acid]         0.0012 mL/s/g

====

- method: In situ rat brain perfusion (brain uptake Kin, extraction E, BBB PS)
- measurement_context: PoS in mL/s/g
Mark Y for reported Log PoS of -2 or greater; mark N for anything smaller.

                                   compound  category_label
0  CC(C)NC(C)Cc1ccc(I)cc1 (stereo not drawn)               Y
1                                  CNC(N)=O               N
2                CC(O)CO (stereo not drawn)               N
3  O=C[C@@H](O)[C@H](O)[C@@H](O)[C@@H](O)CO               N
4  O=C1Nc2ccc(Cl)cc2C(c2ccccc2Cl)=NC1O (stereo not drawn)               Y

====

- method: In situ rat brain perfusion (brain uptake Kin, extraction E, BBB PS)
- measurement_context: Pc in cm/s
Entries annotated with measured Log Pc
measurement_type: Log Pc

>>> df
                                    compound  reported_measurement
 0                CC(O)CO (stereo not drawn)                 −4.67
 1        O=C(CO)[C@@H](O)[C@H](O)[C@H](O)CO                 −7.24
 2                                     OCCCO                 −4.29
 3  O=C[C@@H](O)[C@H](O)[C@@H](O)[C@@H](O)CO                 −6.90
 4  O=C1Nc2ccc(Cl)cc2C(c2ccccc2Cl)=NC1O (stereo not drawn)                 −2.52
 5                                  CNC(N)=O                 −5.72
 6  CCCCNS(=O)(=O)c1ccccc1 [N-butyl-benzene sulfonamide]                 −2.42
 7  CC(C)NC(C)Cc1ccc(I)cc1 (stereo not drawn)                 −2.54
 8                           Nc1ccccc1C(=O)O                 −4.92
 9                  NC(=O)CI [Iodoacetamide]                 −4.04
10                                        CO                 −3.56
11                   CC(=O)N[C@@H](CS)C(=O)O                 −7.74
